molecular target: vanilloid receptor 1 (VR1/TRPV1 receptor) (Homo sapiens); construct: expressed in transfected cells; host or cells: CHO K1 cells (ECACC), stably transfected; test: Functional test on vanilloid receptor 1, 45° C. stimulus (human); format: cell-based; conditions: read-out: IC50 (human being) [nM], 45° C.
Sequence (Q8NER1 whole entry): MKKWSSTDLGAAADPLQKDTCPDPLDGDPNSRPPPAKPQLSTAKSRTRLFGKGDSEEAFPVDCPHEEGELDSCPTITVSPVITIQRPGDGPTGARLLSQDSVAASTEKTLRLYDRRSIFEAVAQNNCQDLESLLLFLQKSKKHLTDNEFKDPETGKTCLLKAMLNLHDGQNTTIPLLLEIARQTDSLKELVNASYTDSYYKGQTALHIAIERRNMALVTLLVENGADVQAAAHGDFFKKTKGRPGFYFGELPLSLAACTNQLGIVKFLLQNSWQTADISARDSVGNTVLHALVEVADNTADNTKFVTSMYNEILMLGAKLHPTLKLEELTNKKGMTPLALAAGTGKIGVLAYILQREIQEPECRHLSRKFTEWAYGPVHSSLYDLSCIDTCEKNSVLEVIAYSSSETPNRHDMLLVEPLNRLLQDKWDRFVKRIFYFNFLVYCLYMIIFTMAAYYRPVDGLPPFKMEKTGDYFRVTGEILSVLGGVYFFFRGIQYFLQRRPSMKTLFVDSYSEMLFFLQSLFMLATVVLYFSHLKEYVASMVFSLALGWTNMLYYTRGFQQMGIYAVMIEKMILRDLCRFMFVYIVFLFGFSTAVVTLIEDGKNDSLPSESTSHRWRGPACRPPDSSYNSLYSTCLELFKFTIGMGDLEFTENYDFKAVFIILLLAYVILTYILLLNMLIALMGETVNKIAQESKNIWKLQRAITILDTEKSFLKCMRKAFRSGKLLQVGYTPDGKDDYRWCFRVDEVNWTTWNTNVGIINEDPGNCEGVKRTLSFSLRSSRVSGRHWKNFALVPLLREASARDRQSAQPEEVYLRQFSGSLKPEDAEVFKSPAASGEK
Entries and their IC50
ASSAY_ENDPOINT: IC50 (nM)

compound=Cn1cc(CC(=O)NCc2cc(C(F)(F)F)nn2-c2cccc(Cl)c2)c2cc(O)ccc21 assay_endpoint=IC50 units_text=nM reading=1730
compound="CC(C(=O)NCc1cc(C(C)(C)C)nn1-c1ccc(F)c(Cl)c1)c1cn(C)c2ccc(O)cc12 (stereo not shown)" assay_endpoint=IC50 units_text=nM reading=39
compound="CC(C(=O)NCc1cc(C(F)(F)F)nn1-c1cccc(Cl)c1)c1cn(C)c2ccccc12 (stereo not shown)" assay_endpoint=IC50 units_text=nM reading=924
compound="CC(C(=O)NCc1cc(C2CC2)nn1-c1cccc(Cl)c1)c1cn(C)c2ccc(O)cc12 (stereo not shown)" assay_endpoint=IC50 units_text=nM reading=95.8
